Please provide measured HEK-Blue activity, No BP, DF-10000 for the entries that follow.
Biological target: T1, IL-18 receptors on HEK-Blue IL-18 reporter cells (UniProt Q13478 19-541; O95256 20-599, limits assumed)
T1 sequence (looked up) 1: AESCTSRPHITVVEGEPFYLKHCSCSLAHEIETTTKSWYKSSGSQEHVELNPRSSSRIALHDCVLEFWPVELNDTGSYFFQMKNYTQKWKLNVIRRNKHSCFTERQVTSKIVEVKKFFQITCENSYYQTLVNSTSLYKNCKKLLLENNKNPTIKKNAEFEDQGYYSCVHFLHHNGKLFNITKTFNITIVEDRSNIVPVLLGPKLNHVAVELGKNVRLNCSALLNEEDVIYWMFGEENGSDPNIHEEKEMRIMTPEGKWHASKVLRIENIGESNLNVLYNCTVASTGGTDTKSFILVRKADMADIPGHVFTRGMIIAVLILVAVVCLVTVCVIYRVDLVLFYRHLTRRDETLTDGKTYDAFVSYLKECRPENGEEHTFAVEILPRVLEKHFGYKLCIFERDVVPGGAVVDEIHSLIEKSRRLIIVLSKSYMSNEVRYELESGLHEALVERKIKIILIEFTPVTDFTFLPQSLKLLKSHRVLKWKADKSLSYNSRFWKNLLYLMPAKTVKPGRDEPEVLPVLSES
T1 sequence (looked up) 2: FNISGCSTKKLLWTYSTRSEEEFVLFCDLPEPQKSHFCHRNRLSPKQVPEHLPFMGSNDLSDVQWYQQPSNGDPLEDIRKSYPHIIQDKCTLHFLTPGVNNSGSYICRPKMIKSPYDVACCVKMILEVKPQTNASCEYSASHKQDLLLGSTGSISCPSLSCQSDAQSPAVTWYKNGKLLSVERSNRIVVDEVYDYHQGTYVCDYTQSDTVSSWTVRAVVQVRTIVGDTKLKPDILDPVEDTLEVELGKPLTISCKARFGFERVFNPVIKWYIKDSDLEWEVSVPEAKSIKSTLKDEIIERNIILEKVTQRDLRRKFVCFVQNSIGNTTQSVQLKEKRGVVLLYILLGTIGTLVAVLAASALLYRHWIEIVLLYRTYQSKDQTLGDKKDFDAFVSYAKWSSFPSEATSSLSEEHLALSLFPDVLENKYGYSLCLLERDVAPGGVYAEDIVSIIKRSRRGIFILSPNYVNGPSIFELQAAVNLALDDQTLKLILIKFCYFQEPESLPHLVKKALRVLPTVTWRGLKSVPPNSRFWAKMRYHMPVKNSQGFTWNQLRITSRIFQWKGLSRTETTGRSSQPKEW
Assay: cell-based or functional assay
One number for each entry.

1) yeast display IL-18 variant K53Y, S55G (ligand) YFGKLESKLSVIRNLNDQVLFIDQGNRPLFEDMTDSDMRDNAPRTIFIISMYYDGQPRGMAVTISVKSEKISTLSSENKIISFKEMNPPDNIKDTKSDIIFFQRSVPGHDNKMQFESSSYEGYFLASEKERDLFKLILKKEDELGDRSIMFTVQNED
0.36
2) yeast display IL-18 variant K53N, S55M, R104S, P107A (ligand) YFGKLESKLSVIRNLNDQVLFIDQGNRPLFEDMTDSDMRDNAPRTIFIISMYNDMQPRGMAVTISVKSEKISTLSSENKIISFKEMNPPDNIKDTKSDIIFFQSSVAGHDNKMQFESSSYEGYFLASEKERDLFKLILKKEDELGDRSIMFTVQNED
0.8
3) yeast display IL-18 variant K53H, S55V (ligand) YFGKLESKLSVIRNLNDQVLFIDQGNRPLFEDMTDSDMRDNAPRTIFIISMYHDVQPRGMAVTISVKSEKISTLSSENKIISFKEMNPPDNIKDTKSDIIFFQRSVPGHDNKMQFESSSYEGYFLASEKERDLFKLILKKEDELGDRSIMFTVQNED
1.6
4) yeast display IL-18 variant K53Q, D54N, S55M, Q56H (ligand) YFGKLESKLSVIRNLNDQVLFIDQGNRPLFEDMTDSDMRDNAPRTIFIISMYQNMHPRGMAVTISVKSEKISTLSSENKIISFKEMNPPDNIKDTKSDIIFFQRSVPGHDNKMQFESSSYEGYFLASEKERDLFKLILKKEDELGDRSIMFTVQNED
0.46
5) yeast display IL-18 variant K53G, S55I (ligand) YFGKLESKLSVIRNLNDQVLFIDQGNRPLFEDMTDSDMRDNAPRTIFIISMYGDIQPRGMAVTISVKSEKISTLSSENKIISFKEMNPPDNIKDTKSDIIFFQRSVPGHDNKMQFESSSYEGYFLASEKERDLFKLILKKEDELGDRSIMFTVQNED
0.59
6) yeast display IL-18 variant K53D, S55N (ligand) YFGKLESKLSVIRNLNDQVLFIDQGNRPLFEDMTDSDMRDNAPRTIFIISMYDDNQPRGMAVTISVKSEKISTLSSENKIISFKEMNPPDNIKDTKSDIIFFQRSVPGHDNKMQFESSSYEGYFLASEKERDLFKLILKKEDELGDRSIMFTVQNED
0.45

For every record below, what is its HEK-Blue activity, No BP, DF-10000?
1. yeast display IL-18 variant K53G, S55V (ligand) YFGKLESKLSVIRNLNDQVLFIDQGNRPLFEDMTDSDMRDNAPRTIFIISMYGDVQPRGMAVTISVKSEKISTLSSENKIISFKEMNPPDNIKDTKSDIIFFQRSVPGHDNKMQFESSSYEGYFLASEKERDLFKLILKKEDELGDRSIMFTVQNED
2. yeast display IL-18 variant K53T, S55F (ligand) YFGKLESKLSVIRNLNDQVLFIDQGNRPLFEDMTDSDMRDNAPRTIFIISMYTDFQPRGMAVTISVKSEKISTLSSENKIISFKEMNPPDNIKDTKSDIIFFQRSVPGHDNKMQFESSSYEGYFLASEKERDLFKLILKKEDELGDRSIMFTVQNED
3. yeast display IL-18 variant K53T, S55P (ligand) YFGKLESKLSVIRNLNDQVLFIDQGNRPLFEDMTDSDMRDNAPRTIFIISMYTDPQPRGMAVTISVKSEKISTLSSENKIISFKEMNPPDNIKDTKSDIIFFQRSVPGHDNKMQFESSSYEGYFLASEKERDLFKLILKKEDELGDRSIMFTVQNED

Response:
0.56
0.67
1.42
